Target: T1, recombinant human TIGIT (human, UniProt Q495A1 22-141, limits assumed)
T1 construct: recombinant human TIGIT used in Carterra SPR; also called hTIGIT
T1 sequence (looked up): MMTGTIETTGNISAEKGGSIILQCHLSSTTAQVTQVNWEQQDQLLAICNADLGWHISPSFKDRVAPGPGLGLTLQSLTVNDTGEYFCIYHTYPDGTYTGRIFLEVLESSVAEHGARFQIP
Assay: SPR Carterra, average

| binder | kon / M⁻¹ s⁻¹ |
| --- | --- |
| TIGIT-SC152 (Fc fusion, VHH-Fc fusion in assay) VHH: EVQLVESGGGLVQPGGNLRLSCAASGSTFSKHHAMGWFRQAPGKEREFVAGIIRSGTLKAYADSVKGRFTISADNSKNTAYLQMNSLKPEDTAVYYCTRGRAARHNLWYFDLWGQGTLVTVSS | 106000 |
| TIGIT-SC10 (Fc fusion, VHH-Fc fusion in assay) VHH: EVQLVESGGGLVQPGGSLRLSCAASGNTFSGGFMGWFRQAPGKEREWVASVLRGGYTWYADSVKGRFTISADNSKNTAYLQMNSLKPEDTAVYYCASDPWGTRYFDHWGQGTLVTVSS | 566000 |
| TIGIT-SC130 (Fc fusion, VHH-Fc fusion in assay) VHH: EVQLVESGGGLVQPGGSLRLSCAASGPTLGSYVTGWFRQAPGKEREFVAAISGSSDDTYYADSVKGRFTISADNSKNTAYLQMNSLKPEDTAVYYCARWREFPGYYFAIDVWGQGTLVTVSS | 72000 |
| TIGIT-SC25 (Fc fusion, VHH-Fc fusion in assay) VHH: EVQLVESGGGLVQPGGSLRLSCAASGNTFSGGFMGWFRQAPGKEREWVASVLRGGYTWYADSVKGRFTISADNSKNTAYLQMNSLKPEDTAVYYCTTVGYGDYWGQGTLVTVSS | 77200 |
| TIGIT-SC13 (Fc fusion, VHH-Fc fusion in assay) VHH: EVQLVESGGGLVQPGGSLRLSCAASGRTFSFMGWFRQAPGKEREWVASVLRGGYTWYADSVKGRFTISADNSKNTAYLQMNSLKPEDTAVYYCATESMDYWGQGTLVTVSS | 60100 |
| TIGIT-SC107 (Fc fusion, VHH-Fc fusion in assay) VHH: EVQLVESGGGLVQPGGSLRLSCAASGFAFSSDWMGWFRQAPGKEREGVAWIARYDGSTLYADSVKGRFTISADNSKNTAYLQMNSLKPEDTAVYYCAKDLDSSGRFFQHWGQGTLVTVSS | 213000 |
| TIGIT-SC165 (Fc fusion, VHH-Fc fusion in assay) VHH: EVQLVESGGGLVQPGGSLRLSCAASGNTFSGGFMGWFRQAPGKEREWVASVLRGGYTWYADSVKGRFTISADNSKNTAYLQMNSLKPEDTAVYYCTTEGSGWRNWGQGTLVTVSS | 93300 |
| TIGIT-SC150 (Fc fusion, VHH-Fc fusion in assay) VHH: EVQLVESGGGLVQPGGSLRLSCAASGFTLENNMMGWFRQAPGKEREFVAAISRSGTLKAYADSVKGRFTISADNSKNTAYLQVNSLKPEDTAVYYCVRVRGYSGYDCDYWGQGTLVTVSS | 212000 |
| TIGIT-SC33 (Fc fusion, VHH-Fc fusion in assay) VHH: EVQLVESGGGLVQPGGSLRLSCAASGFLFDSYAMGWFRQAPGKEREFVAAVSQSGLLTFYADSVKGRFTISADNSKNTAYLQMNSLKPEDTAVYYCASRTSSWWWFDPWGQGTLVTVSS | 182000 |
| TIGIT-SC44 (Fc fusion, VHH-Fc fusion in assay) VHH: EVQLVESGGGLVQPGGSLRLSCAASGSIFGLGAMGWFRQAPGKERELVAITWGGSTTLYADSVKGRFTISADNSKNTAYLQMNSLKPEDTAVYYCATDQGQWLFDFWGQGTLVTVSS | 354000 |
| TIGIT-SC170 (Fc fusion, VHH-Fc fusion in assay) VHH: EVQLVESGGGLVQPGGSLRLSCAASGHTFSPSWMGWFRQAPGKEREWVASVLRGGYTWYADSVKGRFTISADNSKNTAYLQMNSLKPEDTAVYYCTTELRWELQQPDYWGQGTLVTVSS | 45000 |
| TIGIT-SC161 (Fc fusion, VHH-Fc fusion in assay) VHH: EVQLVESGGGLVQPGGSLRLSCAASGFTFSPSWMGWFRQAPGKEREWVASVLRGGYTWYADSVKGRFTISADNSKNTAYLQMNSLKPEDTAVYYCTTDRAIGVRPLFDHWGQGTLVTVSS | 57100 |
| TIGIT-SC142 (Fc fusion, VHH-Fc fusion in assay) VHH: EVQLVESGGGLVQPGGSLRLSCAASGFSFDRWAMGWFRQAPGKEREFVAAIGWSGNLKAYADSVKGRFTISADNSKNTAYLQMNSLKPEDTAVYYCASGDGYSMDYFDPWGQGTLVTVSS | 320000 |
| TIGIT-SC120 (Fc fusion, VHH-Fc fusion in assay) VHH: EVQLVESGGGLVQPGGSLRLSCAASGFTFSPSWMGWFRQAPGKEREWVASVLRGGYTWYADSVKGRFTISADNSKNTAYLQMNSLKPEDTAVYYCAKDGGWFDPWGQGTLVTVSS | 67600 |
| TIGIT-SC94 (Fc fusion, VHH-Fc fusion in assay) VHH: EVQLVESGGGLVQPGGSLRLSCAASGSSFSAYAMGWFRQAPGKEREFVSLINWSSGKTIYADSVKGRFTISADNSKNTAYLQMNSLKPEDTAVYYCARVRIFNHVHRPSYYFDYWGQGTLVTVSS | 49200 |
